METHOD DESCRIPTION: Tanguay_ZF_120hpf_MORT_legacy: (Legacy) Oregon State University Tanguay Lab 120 Hour Post-fertilization zebrafish Assay for Mortality (AID 2283633)
The source made the active and inactive calls. How the source made its calls: active means hit-call score of the fitted dose curve at least 0.9, where 1 is the maximum; inconclusive means response in the unintended direction; inactive means score below 0.9.
Hi there, use one of these labels in your reply, thanks! class 1 for active, class 0 for inactive

Here are 3 compounds together with their reported answers.
>  <COMPOUND>
CC1COC(Cn2cncn2)(c2ccc(Oc3ccc(Cl)cc3)cc2Cl)O1 (stereo not drawn)

>  <DISCRETE LABEL>
class 0

$$$$
>  <COMPOUND>
N#CC(CCc1ccc(Cl)cc1)(Cn1cncn1)c1ccccc1 (stereo not drawn)

>  <DISCRETE LABEL>
class 0

$$$$
>  <COMPOUND>
N#Cc1nn(-c2c(Cl)cc(C(F)(F)F)cc2Cl)c(N)c1S(=O)C(F)(F)F (stereo not drawn)

>  <DISCRETE LABEL>
class 0

$$$$

-- ask Please state the recorded outcome for this compound: `COP(=S)(OC)Oc1nc(Cl)c(Cl)cc1Cl`
-- reply class 0

-- ask Could you do the same for `CCNc1nc(Cl)nc(NC(C)C)n1` , please?
-- reply class 0

-- ask Entry CC(Oc1ccc(Cl)cc1Cl)C(=O)O (stereo not drawn) please
-- reply class 0

-- ask Would you kindly repeat that for `Fc1ccc(Oc2ccnc3cc(Cl)cc(Cl)c23)cc1` ?
-- reply class 0

-- ask Same again, this time with `CCCCOC(=O)c1ccccc1C(=O)OCCCC`
-- reply class 0

====

METHOD DESCRIPTION: IUF_NPC1a_proliferation_area_72hr: Leibniz Research Institute for Environmental Medicine (IUF) 72-hour Neural Progenitor Cell Proliferation Area Assay (NPC1a) (AID 2284208)
Active and inactive are the calls of the source. Rule for the calls: active = hit-call score of the fitted dose curve at least 0.9, where 1 is the maximum; inactive = score below 0.9.
Bench note: report the call from yes (1) for active, no (0) for inactive

>  <COMPOUND>
N#Cc1nn(-c2c(Cl)cc(C(F)(F)F)cc2Cl)c(N)c1S(=O)C(F)(F)F (stereo unspecified)

>  <DISCRETE LABEL>
no (0)

$$$$

-- ask Identify the outcome logged in this assay for the compound shown: `CNC(=O)ON=CC(C)(C)SC`
-- reply no (0)

-- ask What about `Cc1ccc(-c2c(Cl)nc(C#N)n2S(=O)(=O)N(C)C)cc1` ?
-- reply yes (1)

====

METHOD DESCRIPTION: CCTE_Mundy_HCI_iCellGluta_NOG_NeuriteLength: CCTE's Neurite Outgrowth Assay in iCellGluta cells for Neurite Length, Mundy Lab (AID 2284318)
Results filed as inconclusive are left out. Activity calls are given as the source filed them. Rule for the calls: active = hit-call score of the fitted dose curve at least 0.9, where 1 is the maximum; inconclusive = response in the unintended direction; inactive = score below 0.9.
RECORDED ENDPOINT: AC50

Past entries and their recorded results:
>  <COMPOUND>
CCCCNC(=O)n1c(NC(=O)OC)nc2ccccc21

>  <AC50>
inactive

$$$$
>  <COMPOUND>
C=CCC1=C(C)[C@@H](OC(=O)[C@@H]2[C@@H](C=C(C)C)C2(C)C)CC1=O

>  <AC50>
5.87 µM (active)

$$$$
>  <COMPOUND>
CCOc1cc(Oc2ccc(C(F)(F)F)cc2Cl)ccc1[N+](=O)[O-]

>  <AC50>
73.7 µM (active)

$$$$
>  <COMPOUND>
CCCCC(CC)COC(=O)c1ccccc1C(=O)OCC(CC)CCCC (stereo not given)

>  <AC50>
36.1 µM (active)

$$$$

-- ask AC50 for `CCCCOC(=O)c1ccccc1C(=O)OCCCC` ?
-- reply inactive

-- ask Request: `CC(C)(C)c1ccc(CSc2cnn(C(C)(C)C)c(=O)c2Cl)cc1`
-- reply 0.15 µM (active)

====

Read-out: Peroxisomal acyl-coenzyme A oxidase 1 (ACOX1) gene, ACOX1 (gene 51)
METHOD DESCRIPTION: LTEA_HepaRG_ACOX1: Life Technologies and Expression Analysis (LTEA) Assay for Peroxisomal acyl-coenzyme A oxidase 1 (ACOX1) gene using HepaRG (AID 2283467)
REPORTED CONDITIONS: mRNA level, 48 h; actives raise or lower the signal
Calls of active or inactive are those of the source. Rule for the calls: active = hit-call score of the fitted dose curve at least 0.9, where 1 is the maximum; inactive = score below 0.9.
Respond using exactly one of the listed classes: Yes = active, No = inactive

Example entries begin here.
>  <COMPOUND>
CCON=C(CC)C1=C(O)CC(c2c(C)cc(C)cc2C)CC1=O (stereo not given)

>  <DISCRETE LABEL>
No

$$$$
>  <COMPOUND>
N#Cc1cc(Br)c(O)c(Br)c1

>  <DISCRETE LABEL>
Yes

$$$$
>  <COMPOUND>
CCNc1nc(Cl)nc(NCC)n1

>  <DISCRETE LABEL>
No

$$$$
>  <COMPOUND>
N#Cc1nn(-c2c(Cl)cc(C(F)(F)F)cc2Cl)c(N)c1S(=O)C(F)(F)F (stereo not given)

>  <DISCRETE LABEL>
Yes

$$$$

-- ask So what was the verdict on CC(Oc1ccc(Cl)cc1Cl)C(=O)O (stereo not given) in this test?
-- reply No

-- ask Same for C#CCOS(=O)OC1CCCCC1Oc1ccc(C(C)(C)C)cc1 (stereo not given)
-- reply Yes

-- ask Repeat with `CS/C(C)=N/OC(=O)N(C)SN(C)C(=O)O/N=C(\C)SC`
-- reply No

-- ask Then this compound: `CCNc1nc(Cl)nc(NC(C)C)n1`
-- reply No

-- ask Next compound up: `Oc1ccccc1-c1ccccc1`
-- reply No

-- ask Try this compound too: CCOC(=O)CC(SP(=S)(OC)OC)C(=O)OCC (stereo not given)
-- reply No

-- ask Try the compound `Fc1ccc(Oc2ccnc3cc(Cl)cc(Cl)c23)cc1`
-- reply No

-- ask Would you mind doing CC1COC(Cn2cncn2)(c2ccc(Oc3ccc(Cl)cc3)cc2Cl)O1 (stereo not given) as well?
-- reply Yes

-- ask Param item: `Cc1cc(Cl)ccc1OCC(=O)O`
-- reply Yes

====

Test system: zebrafish Estrogen Receptor (ESR2B), gene 317733
METHOD DESCRIPTION: ATG_zfER2b_XSP1: Attagene TRANS-FACTORIAL Multi-Species (XSP1) HepG2 Assay for zebrafish Estrogen Receptor (ESR2B) (AID 2283773)
Experimental: ATG_XSP1_multi-species_TRANS is a cell-based, multiplexed assay created by modifying the existing Attagene TRANS-FACTORIAL system to include a panel of nuclear receptors from some or all the following species: human (Homo sapiens), mouse (Mus musculus), frog (Xenopus laevis), zebrafish (Danio rerio), chicken (Gallus gallus), and turtle (Chrysemys picta). The ECOTOX-FACTORIAL format uses HepG2, a human liver cell line, with measurements taken at 24 hours after chemical dosing in a 24-well plate. […]
Results filed as inconclusive are left out. Calls of active or inactive are those of the source. How the source made its calls: active means hit-call score of the fitted dose curve at least 0.9, where 1 is the maximum; inconclusive means response in the unintended direction; inactive means score below 0.9.
RECORDED ENDPOINT: AC50

>  <COMPOUND>
CCOP(=S)(OCC)SCn1c(=O)oc2cc(Cl)ccc21

>  <AC50>
24.5 µM (active)

$$$$

-- ask Entry under review: `CC(C)Oc1cc(-n2nc(C(C)(C)C)oc2=O)c(Cl)cc1Cl` . Reported AC50?
-- reply 29.6 µM (active)

-- ask Next entry: `CCCCOC(=O)c1ccccc1C(=O)OCCCC`
-- reply 24.6 µM (active)

-- ask Then this compound: C#CCOS(=O)OC1CCCCC1Oc1ccc(C(C)(C)C)cc1 (stereo unspecified)
-- reply 80.1 µM (active)

-- ask Would you mind doing CCCC1COC(Cn2cncn2)(c2ccc(Cl)cc2Cl)O1 (stereo unspecified) as well?
-- reply 27.6 µM (active)

====

ASSAYED TARGET: human CYP2J2, CYP2J2 (gene 1573) (UniProt P51589)
Sequence (P51589 whole entry, looked up): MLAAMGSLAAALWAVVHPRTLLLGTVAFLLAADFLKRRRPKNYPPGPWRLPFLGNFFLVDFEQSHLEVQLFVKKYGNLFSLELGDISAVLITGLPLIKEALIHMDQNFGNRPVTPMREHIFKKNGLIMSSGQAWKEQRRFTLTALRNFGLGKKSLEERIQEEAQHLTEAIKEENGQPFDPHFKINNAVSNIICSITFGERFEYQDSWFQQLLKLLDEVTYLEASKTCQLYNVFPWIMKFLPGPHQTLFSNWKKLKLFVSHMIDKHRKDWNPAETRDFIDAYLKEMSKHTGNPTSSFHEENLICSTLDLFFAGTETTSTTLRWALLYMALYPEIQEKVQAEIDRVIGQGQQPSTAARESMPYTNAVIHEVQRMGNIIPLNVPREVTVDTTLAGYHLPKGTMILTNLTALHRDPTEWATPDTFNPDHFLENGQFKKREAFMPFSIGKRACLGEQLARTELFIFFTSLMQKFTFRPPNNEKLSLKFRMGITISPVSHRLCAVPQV
METHOD DESCRIPTION: NVS_ADME_hCYP2J2: NovaScreen (NVS) CYP450-related Enzyme Activity (ADME) Assay for human CYP2J2 (AID 2283106)
Records with an inconclusive call do not appear. Calls of active or inactive are those of the source. Rule for the calls: active = hit-call score of the fitted dose curve at least 0.9, where 1 is the maximum; inconclusive = response in the unintended direction; inactive = score below 0.9.
Hello, when you answer, please use one of the following outcomes: class 1 (active), class 0 (inactive)

>  <COMPOUND>
CCCC1COC(Cn2cncn2)(c2ccc(Cl)cc2Cl)O1 (centres undefined)

>  <DISCRETE LABEL>
class 0

$$$$

-- ask For CCOC(=O)CC(SP(=S)(OC)OC)C(=O)OCC (centres undefined) , what call appears in the results of this test?
-- reply class 1

-- ask Again, but for `CN(C)C(=S)SSC(=S)N(C)C`
-- reply class 1

-- ask Note, next up: CC1COC(Cn2cncn2)(c2ccc(Oc3ccc(Cl)cc3)cc2Cl)O1 (centres undefined)
-- reply class 1

====

Read-out: matrix metalloproteinase-3 (MMP3), MMP3 (gene 4314)
METHOD DESCRIPTION: LTEA_HepaRG_MMP3: Life Technologies and Expression Analysis (LTEA) Assay for matrix metalloproteinase-3 (MMP3) using HepaRG (AID 2283519)
REPORTED CONDITIONS: mRNA level, 48 h; actives raise or lower the signal
Activity calls are given as the source filed them. How the source made its calls: active means hit-call score of the fitted dose curve at least 0.9, where 1 is the maximum; inactive means score below 0.9.
Choose one outcome from this list and give only that: TRUE (active), FALSE (inactive)

Answered examples (4):
>  <COMPOUND>
CCOc1cc(Oc2ccc(C(F)(F)F)cc2Cl)ccc1[N+](=O)[O-]

>  <DISCRETE LABEL>
FALSE

$$$$
>  <COMPOUND>
N#CC(CCc1ccc(Cl)cc1)(Cn1cncn1)c1ccccc1 (stereo not drawn)

>  <DISCRETE LABEL>
TRUE

$$$$
>  <COMPOUND>
C=CCC1=C(C)[C@@H](OC(=O)[C@@H]2[C@@H](C=C(C)C)C2(C)C)CC1=O

>  <DISCRETE LABEL>
FALSE

$$$$
>  <COMPOUND>
COP(=S)(OC)Oc1nc(Cl)c(Cl)cc1Cl

>  <DISCRETE LABEL>
FALSE

$$$$

-- ask Write down the call the test reported for this compound. Item: `CC(C)(C)c1ccc(CSc2cnn(C(C)(C)C)c(=O)c2Cl)cc1`
-- reply FALSE

-- ask Next compound: CC(Oc1ccc(Cl)cc1Cl)C(=O)O (stereo not drawn)
-- reply FALSE

-- ask Follow-up entry: `COC(=O)c1ccccc1C(=O)OC`
-- reply FALSE

-- ask Cool, now `CNC(=O)ON=CC(C)(C)SC`
-- reply FALSE
